Tested on: HOP-62 NSCLC
Assay: NCI-60 one-dose screen, 48 h (100 = growth as untreated, 0 = no growth, -100 = all killed)
Conditions: 10 µM unless noted
Compounds without any hit were thinned out: in the full panel of roughly 83,000, 20% have a hit.
QUANTITY_MEASURED: growth (%)
Report the value in % with no unit label.

A selection of reference data follows.
[
  {
    "MOLECULE": "CC(=O)c1c(C)nc(SCC(=O)Nc2cccc(O)c2)n1-c1ccc(Cl)cc1",
    "UNIT_NAME": "%",
    "growth": 105
  },
  {
    "MOLECULE": "CCC1=C[C@@H]2C[C@]3(C(=O)OC)c4[nH]c5ccccc5c4CC[N@+](CC(=O)Nc4cc5c(cc4OC)N(C)[C@H]4[C@@](O)(C(=O)OC)[C@H](OC(C)=O)[C@]6(CC)C=CCN7CC[C@]54[C@@H]76)(C2)[C@H]13",
    "UNIT_NAME": "%",
    "growth": 99.5
  },
  {
    "MOLECULE": "O=[N+]([O-])c1ccc(O)cc1Br",
    "UNIT_NAME": "%",
    "growth": 92.4
  },
  {
    "MOLECULE": "CN(C)CCNC(=O)c1ccc(-c2nc3ccc4[nH]ncc4c3c3c2C2CCC3C2)cc1 (centres undefined)",
    "UNIT_NAME": "%",
    "growth": 46.6
  }
]

Enquiry: Give the measured growth of `CC(C)c1ccc(C(=O)Nc2nc3ccc(O)c(CN(C)C)c3s2)cc1` .
Return: 93.4

Enquiry: Give the measured growth of O=CN1N=C(c2cccc(Nc3ccnc4cc(Cl)ccc34)c2)CC1c1ccccc1 (centres undefined) .
Return: 37.2

Enquiry: Give the measured growth of `COc1cc(-c2cncn2-c2ccc(-c3nc4ccc(F)cc4s3)cc2)ccc1F` .
Return: 102

Enquiry: Give the measured growth of `Fc1ccc(CNc2c3ccccc3nc3ccccc23)c(F)c1` .
Return: 57.2

Enquiry: Give the measured growth of `CS(=O)(=O)Nc1cncc(-c2ccc3ncnc(Nc4cncc(Cl)c4)c3c2)c1` .
Return: 73.4

* * *

System: KM12 colon
Assay: NCI-60 one-dose screen, 48 h (100 = growth as untreated, 0 = no growth, -100 = all killed)
Details: 10 µM unless noted
Compounds without any hit were thinned out: in the full panel of roughly 83,000, 20% have a hit.
Parameter: growth. Scope: all listed entries.
Report the value in % with no unit label.

[
  {
    "COMPOUND": "CCCOC(=O)Nc1nc2ccc(SCC(C)C)cc2s1",
    "TARGET_DESC": "KM12 colon",
    "READOUT_VALUE": 38.8
  },
  {
    "COMPOUND": "O=C(Cn1cc(CSc2nc3ccccc3o2)nn1)Nc1ccc(F)cc1F",
    "TARGET_DESC": "KM12 colon",
    "READOUT_VALUE": 116
  },
  {
    "COMPOUND": "CN1CCN(c2cc(Nc3cc(C4CC4)[nH]n3)nc(Nc3ccc(CC(=O)NCc4cccc(F)c4)cc3)n2)CC1",
    "TARGET_DESC": "KM12 colon",
    "READOUT_VALUE": 9.2
  },
  {
    "COMPOUND": "Nc1nc2ccccc2c2c1S(=O)(=O)c1ccc(Cl)cc1C2=O",
    "TARGET_DESC": "KM12 colon",
    "READOUT_VALUE": 18.4
  },
  {
    "COMPOUND": "Nc1c(C(=O)Nc2ccncc2)sc2nc3c(cc12)C(O)CCC3 (stereo not given)",
    "TARGET_DESC": "KM12 colon",
    "READOUT_VALUE": 109
  }
]

Enquiry: Give the measured growth of `CCN(CC)CCCCCNc1cc(OC(=O)c2ccc(Cl)cc2)cc2cccnc12` .
Return: 111

Enquiry: Give the measured growth of CC(C)=CCCC(C)c1ccc(C)c2c1OCN(CCCCCO)C2 (stereo not given) .
Return: 104

Enquiry: Give the measured growth of `CCOC(=O)Cc1cnc(N/N=C(\C)c2cc3ccccc3o2)s1` .
Return: 96.3

Enquiry: Give the measured growth of `CCc1ccccc1-n1c(-c2ccc(OC)cc2)cc(-c2ccc(OC)cc2)c(C#N)c1=O` .
Return: 92.5

Enquiry: Give the measured growth of `N#Cc1c(-c2ccccc2)cc(-c2ccc(Nc3nc(Nc4ccc(Cl)cc4)nc(Nc4ccc(Cl)cc4)n3)cc2)nc1N` .
Return: 50.1
